Value source: ChEMBL document CHEMBL1961873

target: Proto-oncogene tyrosine-protein kinase receptor Ret (Homo sapiens); settings: at 1 µM;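 also: each listed value is an averaged inhibition figure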
Quick list: inhibition per entry.
Could you give me the number in %? Just the number is fine.

Examples with answers:
>  <Compound>
Fc1cccc(COc2ccc(Nc3ncnc4sc(-c5cccs5)cc34)cc2Cl)c1

>  <inhibition / %>
0.68

$$$$
>  <Compound>
COc1ccc(-c2ccncc2)cc1C(N)=O

>  <inhibition / %>
6.29

$$$$
>  <Compound>
Fc1cccc(COc2ccc(Nc3ncnc4cc(-c5ccc[nH]5)sc34)cc2Cl)c1

>  <inhibition / %>
11.5

$$$$
>  <Compound>
CS(=O)(=O)CCNCc1ccc(-c2ccc3ncnc(Nc4ccc(OCc5cccc(F)c5)c(C(F)(F)F)c4)c3c2)o1

>  <inhibition / %>
3.78

$$$$
>  <Compound>
COc1ccc(-c2nn3ncccc3c2-c2ccnc(Nc3ccc(Cl)c(C(F)(F)F)c3)n2)cc1

>  <inhibition / %>
-0.91

$$$$
>  <Compound>
Cc1nn(C)c2cc(N(C)c3ccnc(Nc4cccc(S(N)(=O)=O)c4)n3)ccc12

>  <inhibition / %>
39

$$$$
>  <Compound>
CC(C)=Cc1cccc2c1/C(=N/Nc1ccc(S(N)(=O)=O)cc1)C(=O)N2

>  <inhibition / %>
60.7

$$$$
>  <Compound>
CS(=O)(=O)CCNCc1nc(-c2ccc3ncnc(Nc4ccc(F)c(Cl)c4)c3c2)cs1

>  <inhibition / %>
13.1

$$$$

### Prompt Need inhibition, item "COc1ccc(-c2coc3ncnc(N)c23)cc1"
### Response 11.7
